Reference for the values: patent US5120744A

The following compounds are listed with their measured IC50 values.
System: lipoxygenase
test.method.notes: lipoxygenase inhibition: release of leukotriene B4 (LTB4) from polymorphonuclear rat leukocytes (PMN), reverse phase HPLC, after adding substances and Ca ionophore
Format: cell-based
cond: read-out: LO inhibition IC50
readout.kind: IC50

1. O=C(NC(=S)Nc1ccc(OCc2ccc3ccccc3n2)cc1)c1ccc(Cl)cc1 [Example 6] | 360 nM
2. N#CC1(NC(=S)Nc2ccc(OCc3ccc4ccccc4n3)cc2)CCCCC1 [Example 7] | 240 nM
3. Cc1cc([N+](=O)[O-])c(Cl)cc1NC(=S)Nc1ccc(OCc2ccc3ccccc3n2)cc1 [Example 4] | 33 nM
4. Cc1cc(Cl)c(Cl)cc1NC(=S)Nc1ccc(OCc2ccc3ccccc3n2)cc1 [Example 5] | 410 nM
5. Cc1cc([N+](=O)[O-])ccc1NC(=S)Nc1ccc(OCc2ccc3ccccc3n2)cc1 [Example 3] | 36 nM
6. Cc1cc(Cl)ccc1NC(=S)Nc1ccc(OCc2ccc3ccccc3n2)cc1 [Example 8] | 290 nM
